Assay: chemical recovery from spiked human plasma; higher = better extraction
Conditions: pooled human plasma; extraction method: SPE only (HLB 96-well)
So I've got a bunch of compounds here, and I need their chemical recovery values.
Numbers only; they are read as %.

Looking up CCNc1nc(Cl)nc(NCC)n1 [Simazine] , I found its chemical recovery recorded as 43.4

# chemical recovery (compound: Nc1c(Cl)c(Cl)nc(C(=O)O)c1Cl [Picloram] ) is 34.9

The compound identified as O=S(=O)(O)c1ccc2[nH]c(-c3ccccc3)nc2c1 [Phenylbenzimidazole sulfonic acid] registered its chemical recovery at 36.9

Given item Cc1c(C=O)c(=O)n(-c2ccccc2)n1C [4-Formyl-antipyrine] , the value recorded as its chemical recovery is 34.4

Entry under test: O=C(O)/C=C/c1c[nH]c2ccccc12 [Indole-3-acrylic-acid] . Its chemical recovery was 45.2

chemical recovery recorded for this compound, O=C(Nc1ccccc1)Nc1ccccc1 [1,3-Diphenylurea] , is 46.9

For this compound ( CC[N+](CC)(CC)CC [Tetraethylammonium] ), measured chemical recovery is 1.23

Measured chemical recovery, CCC(C)OC(=O)N1CCCCC1CCO (stereo not given) [Icaridin] : 45

CCCCCCCCCCOS(=O)(=O)O [Decylsulfate] has a reported chemical recovery of 18.8

Sample CCCCC(CC)COC(=O)CC(C(=O)OCC(CC)CCCC)S(=O)(=O)O (stereo not given) [Dioctylsulfosuccinate] ; chemical recovery observed: 26.5

----------
Assay: chemical recovery into PDMS from spiked human plasma; higher = better extraction
Settings: pooled human plasma; extraction method: PES with PDMS; equilibration time (d): 3
I'd be grateful if you could share measured chemical recovery into PDMS for these entries.
Report the value in % with no unit label.

For this compound ( CCOC(=O)C1=C(C)NC(C)=C(C(=O)OC)C1c1cccc([N+](=O)[O-])c1 (stereo not given) ), measured chemical recovery into PDMS is 17.4

Entry CC(CCl)OP(=O)(OC(C)CCl)OC(C)CCl (stereo not given) [Tris(1-chloro-2-propyl)phosphate] , chemical recovery into PDMS reported as 44.3

The value of chemical recovery into PDMS measured for the compound OC(Cc1ccccc1Cl)(Cn1cncn1)C1(Cl)CC1 (stereo not given) turned out to be 38.6

Data point: Cc1nc2n(c(=O)c1CCN1CCC(c3noc4cc(F)ccc34)CC1)CCCC2 ; chemical recovery into PDMS = 0.000765

The recorded chemical recovery into PDMS for entry CCOC(=O)c1ccc(N(C)C)cc1 [Ethyl 4-(dimethylamino)benzoate] equals 27.7

----------
Test: chemical recovery from spiked human plasma; higher = better extraction
Details: pooled human plasma; extraction method: PES+SPE (3 d PDMS equilibration then HLB SPE)
Please map values of chemical recovery to classes as shown: class A = under 30%, class B = from 30% up to 50%, class C = 50% and over

(Q) Kindly identify the class of CS(=O)(=O)c1ccc(C(=O)C2C(=O)CCCC2=O)c(Cl)c1 .
(A) class C

(Q) Assign a category based on measured chemical recovery for CNC(=O)Oc1cccc2c1OC(C)(C)O2 and give only the class name.
(A) class B

(Q) For the record O=[N+]([O-])c1ccc(O)c([N+](=O)[O-])c1 , report the class its chemical recovery corresponds to.
(A) class C

(Q) # bin label for CN(C)C(=O)NC1CCCCC1
(A) class A

(Q) Lab note: which band did CC(C)(C)C(=O)C(Oc1ccc(Cl)cc1)n1ccnc1 (stereo not given) land in?
(A) class C

(Q) Where would Oc1c(Br)cc(Br)cc1Br land among the classes by reported chemical recovery?
(A) class B

(Q) Please indicate the class for CCc1cccc(C)c1N(C(=O)C(=O)O)C(C)COC (stereo not given) based on its chemical recovery.
(A) class B

(Q) Using the reported chemical recovery, which band applies to Cc1cc(Cl)ccc1OCCCC(=O)O ?
(A) class B

(Q) Dear colleague, I would appreciate it if you could identify the bin for COc1cc(Cl)c(OC)cc1N and reply at your convenience.
(A) class A

(Q) Textbook exercise: identify the category of the compound given here, CN/C(=N\[N+](=O)[O-])NCc1cnc(Cl)s1 , according to its measured value.
(A) class C

(Q) The entry to classify is COP(=S)(OC)Oc1ccc(SC)c(C)c1 ; which class holds it?
(A) class A

(Q) In plain terms, what class is CCOC(=O)[C@H](CCc1ccccc1)N[C@@H](C)C(=O)N1CCC[C@H]1C(=O)O ?
(A) class B

(Q) Into which category would you place COc1cc(NS(=O)(=O)c2ccc(N)cc2)nc(OC)n1 ?
(A) class B

(Q) Which of the defined bands does the recorded chemical recovery of OC[C@H]1O[C@H](O[C@]2(CCl)O[C@H](CCl)[C@@H](O)[C@@H]2O)[C@H](O)[C@@H](O)[C@H]1Cl sit within?
(A) class A

(Q) Note: place this compound into its band. Item: O=C(O)CCCCCCC(=O)O
(A) class C

(Q) Category lookup for the compound CC1(C)C(=O)NC(=O)NC1=O
(A) class A

(Q) Which chemical recovery band matches O=C(O)C1C(C(=O)O)C2(Cl)C(Cl)=C(Cl)C1(Cl)C2(Cl)Cl (stereo not given) ?
(A) class A

(Q) Could you place CN[C@H]1CC[C@@H](c2ccc(Cl)c(Cl)c2)c2ccccc21 in its proper category? Many thanks.
(A) class A
